Hey, just so you know, these numbers are from patent US3958011A.

Assay: Rota rod test (neurotoxicity)
Format: in vivo
Conditions: mouse, ip, mice, intraperitoneal, 30 min after administration, read-out: NTD50 (neurotoxic dose 50) in the rota rod test
Measure name: TD50 at 0.5 h (mg/kg)
Reply with just the number (in mg/kg).

- Compound: "CCCC(CCC)(CCC)C(=O)[O-].[Na+] [Sodium tri-n-propylacetate, sodium tri-n-propylacetate]"
  Measure name: "TD50 at 0.5 h"
  Observed result: 120

Q. Reported TD50 at 0.5 h for Cc1ccccc1OCC(O)CO (centres unmarked) [Mephenesin, reference compound] : what is it?
A. 100

###

Experiment: Acute toxicity (LD50), technique of Karber and Behrens
Settings: mouse, in vivo, ip
Measure name: selectivity ratio

Q. Suppose we examine the compound CCCC(CCC)(CCC)C(=O)[O-].[Na+] [Sodium tri-n-propylacetate, sodium tri-n-propylacetate] ; what selectivity ratio value has been reported?
A. 20 to 80
